# credit: patent US20140356358A1

# measured on: T1, human neonatal Fc receptor (hFcRn) (human, UniProt P55899 24-290; P61769 21-119)
# T1 construct: Biotinylated in the ELISA, Octet and yeast assays; also called human FcRn; huFcRn
# protocol details: phage ELISA pH 7.4;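 further: higher score means stronger binding and above about 3 to 5 exceeds background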
measured endpoint: ELISA score
I only need the number, thanks.

query: State its ELISA score: variant Fc-fragment Fc-5-92 (other, soluble elsewhere) EPKSCDKTHTCPPCPAPELLGGPSVFLFPPKPKDTLMISRTPEVTCVVVDVSHEDPEVKFNWYVDGVEVHNAKTKPREEQYNSTYRVVSVLTVLHQDWLNGKEYKCKVSNKALPAPIEKTISKAKGQPREPQVYTLPPSRDELTKNQVSLTCLVKGFYPSDIAVEWESNGGCDGRTKYCGGGQPENNYKTTPPVLDSDGSFFLYSKLTVDKSRWQQGNVFSCSVMHEALHNHYTQKSLSLSPGK
result: 0.5
